# Test system: M19-MEL
# experimental details: NCI tumour cell line growth inhibition, 48 h
Structures can show the parent of a compound that is named as a salt. Active and inactive are the calls of the source. Cut-off read from the data, not from the text of the source: active = GI50 up to about 1.1 µM and inactive = higher.
measure: GI50

Example entries and their recorded answers appear below.
• O=C1C=CC2(CCC23C=CC(=O)O3)O1 (stereo unspecified) = > 100 µM (inactive)
• N[C@H](C(=O)O)[C@@H](Cl)CC(=O)O = > 100 µM (inactive)
• Clc1ccc2nc(-c3ccccc3)nc(Cl)c2c1 = 58.2 µM (inactive)
• N=c1ccn2c(n1)O[C@H]1[C@H](O)[C@@H](CO)O[C@H]12 [ANCITABINE HYDROCHLORIDE] = 7.21 µM (inactive)
• N#CCCN(CCC#N)c1ccc(/C=C2\N=C(c3cc([N+](=O)[O-])ccc3Cl)N(S(=O)(=O)c3ccccc3)C2=O)cc1 = > 100 µM (inactive)

Then this compound:
Sample CCc1cccc(C(C)C)c1NC(=O)C(=O)C(Cc1nc2ccccc2nc1O)C(=O)OC (stereo unspecified) ; GI50 observed: > 100 µM (inactive)

Ref: ChEMBL document CHEMBL1201862
